- Measured on: TEAD3 TAZ (amino acids 13-57) (Homo sapiens, UniProt Q99594)
- Sequence (Q99594 173-435 limits assumed): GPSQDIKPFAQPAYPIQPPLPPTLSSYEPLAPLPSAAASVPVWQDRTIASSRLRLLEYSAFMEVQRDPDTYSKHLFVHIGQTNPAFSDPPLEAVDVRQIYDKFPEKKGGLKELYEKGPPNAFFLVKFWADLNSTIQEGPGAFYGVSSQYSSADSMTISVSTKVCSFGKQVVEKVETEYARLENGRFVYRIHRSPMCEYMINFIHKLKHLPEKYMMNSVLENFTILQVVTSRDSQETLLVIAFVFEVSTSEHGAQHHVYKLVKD
- Method notes: TEAD3-TAZ HTRF (TR-FRET) protein-protein interaction assay
- Assay conditions: TEAD3-TAZ HTRF, TR-FRET 665 nm/615 nm; read-out: TEAD3 TAZ HTRF combined: EC50
Readout type: EC50

Requested field: EC50. Item: Cc1ccnc(-c2nn3c(=O)cc(-c4ccc(C5CCCCC5)cc4)[nH]c3c2C(=O)N2CC(CF)C2)n1 [Compound 9]
90 nM

What do you have for CN(C)C(=O)c1nn2c(=O)cc(-c3ccc(CC4CCCC4)cc3)[nH]c2c1C(=O)N1CC(CF)C1 [Compound 2] ?
120 nM

Another molecule: C[C@@H]1[C@H](CF)CN1C(=O)c1c(-c2ncccn2)nn2c(=O)cc(-c3ccc(CC4CCCC4)cc3)[nH]c12 (single isomer, unassigned) [Isomer B, Example 43]
150 nM

Would you kindly repeat that for CCN(C)C(=O)c1nn2c(=O)cc(-c3ccc(C4CCCCC4)cc3)[nH]c2c1C(=O)N1CC(CF)C1 [Compound 35] ?
150 nM

Please give the result for CN(C)C(=O)c1nn2c(=O)cc(-c3ccc(C4CCCCC4)c(F)c3)[nH]c2c1C(=O)N1CC(CF)C1 [Compound 4] too.
80 nM
